system: histamine H2 receptors (Cavia porcellus)
Construct: tests on insulated atrium auricolas of Guinea pig heart; from tissue; host or cells: isolated guinea pig heart atrium
test method notes: Antagonistic activity to the histamine H2 receptors "in vitro" on insulated atrium auricolas of Guinea pig heart
experimental conditions: guinea pig, 0.5 h, compound 1·10^-6 M/L; histamine 1·10^-5 M/L; read-out: Antagonizing activity to histamine H2 receptors
Would you mind labelling by inhibition at 1 µM? At or over 40% is y, under is n.

{"molecule": "CN(C)Cc1ccc(CSCCNc2nc(-c3ccc(-c4ccccc4)cc3)cs2)o1", "class assignment": "y"}
{"molecule": "CN/C(=N/CCSCc1nc[nH]c1C)NC#N [Cimetidine, reference compound]", "class assignment": "n"}
{"molecule": "CN(C)Cc1ccc(CSCCNc2nc(-c3ccccc3)cs2)o1", "class assignment": "y"}

API: above_or_equal(metric=inhibition at 1 µM, cutoff=40%) for item CN(C)Cc1ccc(CSCCNc2nc(C=Cc3ccccc3)cs2)o1
n

Hi team, for CN(C)Cc1ccc(CSCCNC(=S)NC(=O)c2ccccc2)o1 , is the recorded inhibition at 1 µM at or above 40%?
y

Answer whether inhibition at 1 µM of CN(C)Cc1ccc(CSCCNc2nc(-c3ccc(Oc4ccccc4)cc3)cs2)o1 is greater than or equal to 40%.
n

---

system: histamine H2 receptors (Cavia porcellus, UniProt P47747)
Construct: tests on insulated atrium auricolas of Guinea pig heart; from tissue; host or cells: isolated guinea pig heart atrium
Sequence (P47747 whole entry): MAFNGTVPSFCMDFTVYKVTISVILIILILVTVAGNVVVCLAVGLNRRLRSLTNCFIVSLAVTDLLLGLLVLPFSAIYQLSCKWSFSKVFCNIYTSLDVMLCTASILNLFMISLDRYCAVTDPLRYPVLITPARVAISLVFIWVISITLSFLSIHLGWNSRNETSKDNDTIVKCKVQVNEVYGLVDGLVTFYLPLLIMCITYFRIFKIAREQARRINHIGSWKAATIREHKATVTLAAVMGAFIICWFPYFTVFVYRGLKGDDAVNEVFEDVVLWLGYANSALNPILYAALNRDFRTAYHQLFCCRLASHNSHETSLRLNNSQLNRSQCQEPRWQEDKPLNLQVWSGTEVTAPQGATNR
test method notes: Antagonistic activity to the histamine H2 receptors "in vitro" on insulated atrium auricolas of Guinea pig heart
experimental conditions: guinea pig, 0.5 h, compound 1·10^-5 M/L; histamine 1·10^-5 M/L; read-out: Antagonizing activity to histamine H2 receptors
Examples of compounds with documented inhibition at 10 µM follow.
Remember to put the unit after the number in your answer.

{"compound": "CN(C)Cc1ccc(CSCCNc2nc(-c3ccc4ccccc4c3)cs2)o1", "system": "histamine H2 receptors (Cavia porcellus, UniProt P47747)", "measured": "90%"}
{"compound": "CN(C)Cc1ccc(CSCCNc2nc(-c3ccccc3)cs2)o1", "system": "histamine H2 receptors (Cavia porcellus, UniProt P47747)", "measured": "95%"}
{"compound": "CN(C)Cc1ccc(CSCCNC(=S)NC(=O)c2ccccc2)o1", "system": "histamine H2 receptors (Cavia porcellus, UniProt P47747)", "measured": "100%"}
{"compound": "CN(C)Cc1ccc(CSCCNc2nc(-c3ccc(-c4ccccc4)cc3)cs2)o1", "system": "histamine H2 receptors (Cavia porcellus, UniProt P47747)", "measured": "100%"}
{"compound": "CN(C)Cc1ccc(CSCCNc2nc(C=Cc3ccccc3)cs2)o1", "system": "histamine H2 receptors (Cavia porcellus, UniProt P47747)", "measured": "93%"}
{"compound": "CN/C(=N/CCSCc1nc[nH]c1C)NC#N [Cimetidine, reference compound]", "system": "histamine H2 receptors (Cavia porcellus, UniProt P47747)", "measured": "28%"}

GET /value?item= CN(C)Cc1ccc(CSCCNc2nc(-c3ccc(Oc4ccccc4)cc3)cs2)o1 &field=inhibition at 10 µM returns 90%
